Data origin: PubChem BioAssay (EPA / NIEHS)

test: BSK_CASM3C_SRB: Viability Assessment in the BioMAP Diversity Plus: CASM3C Assay (AID 2283050); conditions: primary human coronary artery smooth muscle cells;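 note: total protein by SRB staining as cytotoxicity measure in parallel cultures; cells exposed to compound for 24 h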
Activity calls are given as the source filed them. Rule for the calls: active = hit-call score of the fitted dose curve at least 0.9, where 1 is the maximum; inactive = score below 0.9.
Field 'call' accepts yes (1) (active), no (0) (inactive)

Field: example entries. Status: answers known.
>>> cat("CCCC(C)C(=O)OCC (stereo not given)")
"no (0)"
>>> cat("Oc1ccc(/C=C/c2cc(O)cc(O)c2)cc1")
"no (0)"
>>> cat("CCCCCCC=O")
"no (0)"
>>> cat("Nc1nc(N)nc(-c2ccccc2)n1")
"no (0)"
>>> cat("CCN1CN(CC)CN(CC)C1")
"no (0)"

[Q] Assay outcome for COC(OC)(C(=O)c1ccccc1)c1ccccc1 : what was it?
[A] no (0)

[Q] Assay outcome for C=CCCCCCCCCC=O : what was it?
[A] no (0)

[Q] Assay outcome for O=C(Oc1ccccc1)c1ccccc1C(=O)Oc1ccccc1 : what was it?
[A] no (0)
